Each record here notes measured IC50.
# Experimental system: hBUB1 (Homo sapiens, UniProt O43683)
# Construct: purchased Carna Biosciences 05-187
# Sequence (O43683 whole entry): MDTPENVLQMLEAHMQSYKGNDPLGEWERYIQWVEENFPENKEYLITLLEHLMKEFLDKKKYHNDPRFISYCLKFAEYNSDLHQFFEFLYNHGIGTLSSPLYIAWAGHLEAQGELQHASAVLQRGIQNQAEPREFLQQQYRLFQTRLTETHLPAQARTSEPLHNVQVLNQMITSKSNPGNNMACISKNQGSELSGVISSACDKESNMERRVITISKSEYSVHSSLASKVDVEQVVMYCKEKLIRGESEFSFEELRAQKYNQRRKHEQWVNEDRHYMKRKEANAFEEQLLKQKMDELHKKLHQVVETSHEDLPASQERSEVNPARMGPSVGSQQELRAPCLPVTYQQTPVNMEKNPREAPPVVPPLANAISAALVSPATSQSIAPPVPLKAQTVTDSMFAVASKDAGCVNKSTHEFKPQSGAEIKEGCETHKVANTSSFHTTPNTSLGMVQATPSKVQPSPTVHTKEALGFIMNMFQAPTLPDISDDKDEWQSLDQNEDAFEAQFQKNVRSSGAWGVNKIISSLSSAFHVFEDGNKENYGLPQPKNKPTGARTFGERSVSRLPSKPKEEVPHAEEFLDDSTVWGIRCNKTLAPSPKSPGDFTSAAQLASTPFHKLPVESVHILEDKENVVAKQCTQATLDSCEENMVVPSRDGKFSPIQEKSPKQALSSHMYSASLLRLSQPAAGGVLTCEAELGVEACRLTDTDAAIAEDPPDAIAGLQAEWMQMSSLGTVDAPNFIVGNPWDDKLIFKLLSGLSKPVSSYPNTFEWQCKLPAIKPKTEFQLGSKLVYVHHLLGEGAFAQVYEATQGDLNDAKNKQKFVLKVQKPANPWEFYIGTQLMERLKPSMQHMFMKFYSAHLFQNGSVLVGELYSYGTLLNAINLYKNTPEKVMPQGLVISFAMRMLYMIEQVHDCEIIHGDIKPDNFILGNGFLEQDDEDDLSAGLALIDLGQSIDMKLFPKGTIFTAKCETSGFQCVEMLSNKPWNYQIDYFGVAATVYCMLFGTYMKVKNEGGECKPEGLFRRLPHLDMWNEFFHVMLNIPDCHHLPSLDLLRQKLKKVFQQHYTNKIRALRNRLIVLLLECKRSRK
# Sequence (O43684 whole entry partner): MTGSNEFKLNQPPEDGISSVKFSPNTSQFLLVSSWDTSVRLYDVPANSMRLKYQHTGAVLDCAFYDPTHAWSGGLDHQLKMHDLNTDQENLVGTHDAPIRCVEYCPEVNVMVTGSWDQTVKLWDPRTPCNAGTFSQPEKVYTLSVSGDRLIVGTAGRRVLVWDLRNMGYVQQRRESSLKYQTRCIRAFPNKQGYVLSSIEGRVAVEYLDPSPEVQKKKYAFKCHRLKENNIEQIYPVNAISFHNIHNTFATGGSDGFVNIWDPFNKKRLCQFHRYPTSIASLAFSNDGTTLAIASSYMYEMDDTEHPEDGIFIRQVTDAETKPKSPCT
# Assay notes: hBUB1 kinase activity assay (biochemical fluorescence polarization assay, IMAP)
# Measurement conditions: BUB1/BUB3 3.26 nM, ATP 15 µM, BUB1/BUB3 substrate 75 nM; N=2, n=2; read-out: hBUB1 pIC50 (converted)
Where a name gives a salt, the structure may show the parent alone.

Observe how each entry below is paired with its result.
{"Compound": "c1ccc(Oc2nccc(Nc3c[nH]nc3-c3nc4cc(CN5CCOCC5)ccc4[nH]3)n2)cc1", "IC50": "0.1 to 0.501 µM"}
{"Compound": "Fc1ccc(Cl)cc1-c1nccc(Nc2c[nH]nc2-c2nc3cc(CN4CCOCC4)ccc3[nH]2)n1", "IC50": "≤ 0.1 µM"}
{"Compound": "COc1cnc(-c2c(F)ccc(Cl)c2F)nc1Nc1c[nH]nc1-c1nc2cc(CN3CCOCC3)ccc2[nH]1", "IC50": "≤ 0.1 µM"}
{"Compound": "C#Cc1nccc(Nc2c[nH]nc2-c2nc3cc(CN4CCOCC4)ccc3[nH]2)n1", "IC50": "0.1 to 0.501 µM"}
{"Compound": "c1cnn(-c2nccc(Nc3c[nH]nc3-c3nc4cc(CN5CCOCC5)ccc4[nH]3)n2)c1", "IC50": "0.501 to 1 µM"}
{"Compound": "c1cc(-c2nccc(Nc3c[nH]nc3-c3nc4ccccc4[nH]3)n2)c2[nH]ccc2c1", "IC50": "> 10 µM"}
{"Compound": "COc1cnc(-c2ccc(F)cc2)nc1Nc1c[nH]nc1-c1nc2cc(CN3CCOCC3)ccc2[nH]1", "IC50": "0.1 to 0.501 µM"}
{"Compound": "Clc1ccccc1Oc1nccc(Nc2c[nH]nc2-c2nc3cc(CN4CCOCC4)ccc3[nH]2)n1", "IC50": "0.501 to 1 µM"}
{"Compound": "FC(F)(F)c1cccc(-c2nccc(Nc3c[nH]nc3-c3nc4cc(CN5CCOCC5)ccc4[nH]3)n2)c1", "IC50": "0.501 to 1 µM"}
{"Compound": "COc1cnc(-c2cccc(Cl)c2)nc1Nc1c[nH]nc1-c1nc2cc(CN3CCOCC3)ccc2[nH]1", "IC50": "≤ 0.1 µM"}

## Task What does the record list as IC50 for C#Cc1ccc(F)c(-c2ncc(OC)c(Nc3c[nH]nc3-c3nc4cc(CN5CCOCC5)ccc4[nH]3)n2)c1 ?
## Result ≤ 0.1 µM

## Task What does the record list as IC50 for COc1cnc(-c2cccc(Cl)c2F)nc1Nc1c[nH]nc1-c1nc2cc(CN3CCOCC3)ccc2[nH]1 ?
## Result ≤ 0.1 µM

## Task What does the record list as IC50 for C#Cc1cccc(-c2ncc(OC)c(Nc3c[nH]nc3-c3nc4cc(CN5CCOCC5)ccc4[nH]3)n2)c1 ?
## Result ≤ 0.1 µM

## Task What does the record list as IC50 for COc1cccc(-c2nccc(Nc3c[nH]nc3-c3nc4ccccc4[nH]3)n2)c1 ?
## Result 0.501 to 1 µM

## Task What does the record list as IC50 for c1cc(Nc2c[nH]nc2-c2nc3cc(CN4CCOCC4)ccc3[nH]2)nc(-c2ccsc2)n1 [Compound 21, hydrochloride] ?
## Result 0.501 to 1 µM

Origin of the recorded values: patent EP4293019A1
